# STUDY TARGET: human LMPTP-A (Homo sapiens)
# Sequence (P24666 1-158): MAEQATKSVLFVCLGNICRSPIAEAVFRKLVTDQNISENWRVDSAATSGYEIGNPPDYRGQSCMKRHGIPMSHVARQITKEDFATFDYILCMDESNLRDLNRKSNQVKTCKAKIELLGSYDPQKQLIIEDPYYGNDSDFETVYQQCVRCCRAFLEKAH
READOUT: IC50

// known answers, use as guide
Nc1ncn(Cc2c(Cl)cccc2Cl)c2nc(-c3cccc(F)c3)nc1-2
≤ 1 µM
N#Cc1ccc(-c2nc3c(N)ncn(Cc4c(Cl)cccc4Cl)c-3n2)s1
≤ 1 µM
Cc1cccc(Nc2ncn(Cc3c(Cl)cccc3Cl)c3ncnc2-3)c1
1 to 20 µM

Task: Dear colleague, I am looking for the recorded IC50 of the following molecule: Fc1ccccc1Cn1cnc(NCc2ccco2)c2ncnc1-2
Output: ≥ 20 µM

Task: Dear colleague, I am looking for the recorded IC50 of the following molecule: Nc1ncn(Cc2ccccc2Cl)c2ncnc1-2
Output: 1 to 20 µM

Task: Dear colleague, I am looking for the recorded IC50 of the following molecule: Cc1cccc(Cl)c1Cn1cnc(N)c2ncnc1-2
Output: ≤ 1 µM

Task: Dear colleague, I am looking for the recorded IC50 of the following molecule: Clc1cccc(Cl)c1Cn1cnc(NCc2ccccn2)c2ncnc1-2
Output: 1 to 20 µM

###

# STUDY TARGET: human LMPTP-A (Homo sapiens)
# Sequence (P24666 1-158): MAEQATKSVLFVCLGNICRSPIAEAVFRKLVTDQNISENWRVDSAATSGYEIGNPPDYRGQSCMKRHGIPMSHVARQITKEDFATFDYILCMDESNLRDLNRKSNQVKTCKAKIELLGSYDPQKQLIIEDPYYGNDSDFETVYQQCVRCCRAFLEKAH
# maps each entry to its IC50

// known answers, use as guide
Nc1ncn(Cc2c(Cl)cccc2Cl)c2nc(C3=CCCCC3)nc1-2
≤ 1000 nM
Nc1ncn(Cc2ccccc2)c2ncnc1-2 [3-benzyl-3-hydropurine-6-ylamine, 3-Benzyl-3-hydropurine-6-ylamine]
1000 to 20000 nM
Nc1ncn(Cc2c(Cl)cccc2Cl)c2nc(Cc3ccc(Br)cc3)nc1-2
≤ 1000 nM
COc1ccccc1Nc1ncn(Cc2c(Cl)cccc2Cl)c2ncnc1-2
1000 to 20000 nM
COC(=O)c1cccc(Cl)c1Cn1cnc(N)c2ncnc1-2
≤ 1000 nM

Task: Dear colleague, I am looking for the recorded IC50 of the following compound: Nc1ncn(Cc2c(Cl)ccnc2F)c2ncnc1-2
Output: 1000 to 20000 nM

###

# maps each entry to its IC50
# STUDY TARGET: human LMPTP-A (Homo sapiens)
# EXPERIMENT NOTES: Enzyme Assay of Inhibition of LMPTP-A
# Format: biochemical
# EXPERIMENTAL PARAMETERS: phosphatase assay, OMFP or pNPP substrate, 50 mM Bis-Tris pH 6.0, 37° C.

// known answers, use as guide
FC(F)(F)c1cccc(Nc2ncn(Cc3c(Cl)cccc3Cl)c3ncnc2-3)c1
1 to 20 µM
c1ccc(-n2cnc(NCc3ccco3)c3ncnc2-3)cc1
≥ 20 µM
COc1ccc(CNc2ncn(Cc3c(Cl)cccc3Cl)c3ncnc2-3)cc1
1 to 20 µM

Moving on to the next compound.
Task: Dear colleague, I am looking for the recorded IC50 of the following compound: Clc1ccc(Cn2cnc(NCc3ccco3)c3ncnc2-3)cc1
Output: ≥ 20 µM

###

# maps each entry to its IC50
Protein target, amino acids: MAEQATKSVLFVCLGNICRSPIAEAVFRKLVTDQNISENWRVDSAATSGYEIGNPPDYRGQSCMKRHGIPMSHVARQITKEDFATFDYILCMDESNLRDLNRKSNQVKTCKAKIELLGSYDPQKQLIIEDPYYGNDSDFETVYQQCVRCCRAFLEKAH

Task: Dear colleague, I am looking for the recorded IC50 of the following molecule: Cn1ncc(Br)c1Cn1cnc(N)c2ncnc1-2
Output: ≤ 1 µM

Task: Dear colleague, I am looking for the recorded IC50 of the following molecule: CC(C)(C)c1ccccc1Nc1ncn(Cc2c(Cl)cccc2Cl)c2ncnc1-2
Output: ≥ 20 µM

Task: Dear colleague, I am looking for the recorded IC50 of the following molecule: Nc1ncn(Cc2c(Cl)cccc2Cl)c2nc(-c3cccs3)nc1-2
Output: ≤ 1 µM

###

Target sequence: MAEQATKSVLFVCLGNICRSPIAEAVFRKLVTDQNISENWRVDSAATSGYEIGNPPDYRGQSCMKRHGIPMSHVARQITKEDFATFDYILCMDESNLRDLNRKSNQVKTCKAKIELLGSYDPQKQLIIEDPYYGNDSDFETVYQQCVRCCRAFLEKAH
READOUT: IC50

Clc1ccc(Cn2cnc(NCc3ccco3)c3ncnc2-3)c(Cl)c1
≥ 20 µM
FC(F)(F)c1ccc(Nc2ncn(Cc3c(Cl)cccc3Cl)c3ncnc2-3)cc1
1 to 20 µM
Nc1ncn(Cc2cccc(Cl)c2)c2ncnc1-2 [3-(3-chlorobenzyl)-3H-purin-6-amine]
≥ 20 µM
Nc1ncn(Cc2c(Cl)cccc2Cl)c2nc(COc3ccc(Br)cc3)nc1-2
≤ 1 µM
Clc1cccc(Cl)c1Cn1cnc(N2CCCCC2)c2ncnc1-2
≥ 20 µM

Task: Dear colleague, I am looking for the recorded IC50 of the following compound: N#Cc1ccccc1-c1nc2c(N)ncn(Cc3c(Cl)cccc3Cl)c-2n1
Output: ≤ 1 µM

Task: Dear colleague, I am looking for the recorded IC50 of the following compound: Nc1ncn(Cc2cccc(Cl)c2Cl)c2ncnc1-2
Output: 1 to 20 µM

Task: Dear colleague, I am looking for the recorded IC50 of the following compound: Nc1ncn(Cc2c(Cl)cccc2Cl)c2nc(-c3ccc(F)c(F)c3)nc1-2
Output: ≤ 1 µM

Task: Dear colleague, I am looking for the recorded IC50 of the following compound: Cc1ccccc1Cn1cnc(N)c2ncnc1-2 [3-(2-Methyl-benzyl)-3H-purin-6-ylamine]
Output: 1 to 20 µM

Attribution: patent US20200338084A1
